Just for reference, PubChem BioAssay AID1159580 is where these values come from.

# testProtocol: chemical genetic growth profiling, strain panel (AID 1159580);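 further: tested at 20 µM; growth read once vehicle control cultures reached saturation at 30 °C; 1 = growth at the plate median or of vehicle wells; lower values mean less growth of the strain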
# assaySetup: S. cerevisiae deletion strains, growth OD, locus YDL185W, strain tfp1, stronger effect = lower value
Out of some 5,500 compounds screened, about 2,000 (36%) were called active. About 18% were inconclusive and are not listed. The list shows a part of the results.
# normalized growth annotations
# print the numeric value only

Q: GET /values?readout=normalized growth&item= C=C1c2c(Cl)ccc(O)c2C(O)=C2C(=O)[C@]3(O)C(O)=C(C(N)=O)C(=O)[C@@H](N(C)C)[C@@H]3[C@@H](O)[C@H]12
Ans: 0.961

Q: # iterate: CC(C)CC1NC(=O)CNC1=O (stereo not given)
Ans: 0.963

Q: Moving on to CC12CCC3C(CC3(C)C)C(C)(CCC1=O)O2 (stereo not given)
Ans: 1.02

Q: Now give it for C[C@H](CCC(=O)O)[C@H]1CCC2C3C(=O)CC4CC(=O)CC[C@]4(C)C3CC(=O)[C@@]21C (stereo not given in full) too.
Ans: 1.01

Q: Then this compound: COc1cc(C(C)=O)cc(OC)c1O
Ans: 1

Q: Also, CC(=O)OCC(=O)[C@@]1(O)[C@H](C)CC2C3CCC4=CC(=O)C=C[C@]4(C)[C@@]3(F)[C@@H](O)C[C@@]21C (stereo not given in full) please.
Ans: 1.01

Q: Okay, and CN(C)[C@@H]1C(=O)C(C(N)=O)=C(O)[C@@]2(O)C(=O)C3=C(O)c4c(O)cccc4[C@@](C)(O)[C@H]3[C@H](O)[C@@H]12 ?
Ans: 0.988

Q: Now the same for C[n+]1ccccc1/C=N/O
Ans: 0.999

Q: // next record O=C(O)c1ccc(S(=O)(=O)N(Cl)Cl)cc1
Ans: 1.01

Q: // same read-out, input: CCOC(=O)NNc1nncc2ccccc12
Ans: 0.983

Q: Follow-up item: C/C1=C/CC(C)(C)/C=C/C/C(C)=C/CC1
Ans: 1

Q: Continue with CO[C@H]1CC(O[C@@H]2/C(C)=C/C[C@@H]3C[C@@H](C[C@]4(CC[C@H](C)[C@@H](C5CCCCC5)O4)O3)OC(=O)[C@@H]3C=C(C)/C(=N\O)[C@H]4OC/C(=C\C=C\[C@@H]2C)[C@]43O)O[C@@H](C)C1O (stereo not given in full)
Ans: 0.0713

Q: Request: CN(C)c1ccc(O)c2c1C[C@H]1C[C@H]3[C@H](N(C)C)C(=O)C(C(N)=O)=C(O)[C@@]3(O)C(=O)C1=C2O
Ans: 0.983

Q: Entry CN(C)C1C(=O)C(C(N)=O)=C(O)C2(O)C(=O)C3=C(O)c4c(O)ccc(Cl)c4C(C)(O)C3CC12 (stereo not given) please
Ans: 0.993

Q: Thanks! And C/C1=C\CC(C)(C)/C=C/CC2(C)OC2CC1 (stereo not given) ?
Ans: 1.01

* * *

# testProtocol: chemical genetic growth profiling, strain panel (AID 1159580)
# assaySetup: S. cerevisiae deletion strains, growth OD, locus YKL101W, strain HSL1, stronger effect = lower value
The campaign covered roughly 5,500 compounds. About 2,000 (36%) were called active. Roughly 18% stayed inconclusive and do not appear here. This is one part of the list.
Property: normalized growth; scope: individual compounds
Respond numerically, and do not add a unit to the figure.

[[record]]
moleculesmiles = "O=C(Nc1cccc(Cl)c1)O/N=C1\\CCCc2occc21"
measuredparameter = "normalized growth"
measured = 0.829

[[record]]
moleculesmiles = "Cc1cc(/C(N)=N\\OC(=O)C(C)(C)C)cc(/C(N)=N\\OC(=O)C(C)(C)C)c1"
measuredparameter = "normalized growth"
measured = 0.954

[[record]]
moleculesmiles = "N#CSCC(=O)c1ccccc1"
measuredparameter = "normalized growth"
measured = 0.115


Q: Fill blank: measured normalized growth of the compound O=S(=O)(Nc1ccccc1Oc1ccccc1)c1ccc(-c2ccno2)s1 is ____.
Ans: 0.893

Q: OC(COc1ccc(F)cc1)(c1ccc(Cl)cc1)c1ccc(Cl)cc1 ?
Ans: 0.98

Q: Lookup Cc1ccc2nc(-c3ccc4c(c3)OCCO4)cn2c1
Ans: 0.951

Q: Then this compound: Cc1ccc(-n2cccc2)c(NS(=O)(=O)c2ccc(-c3ccno3)s2)c1
Ans: 0.894

* * *

# testProtocol: chemical genetic growth profiling, strain panel (AID 1159580);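 further: tested at 20 µM; growth read once vehicle control cultures reached saturation at 30 °C; 1 = growth at the plate median or of vehicle wells; lower values mean less growth of the strain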
# assaySetup: S. cerevisiae deletion strains, growth OD, locus YBR229C, strain ROT2, stronger effect = lower value
The campaign covered roughly 5,500 compounds. About 2,000 (36%) were called active. Another 18% or so got no clear call; they are omitted. This is one part of the list.
measuredParameter: normalized growth
The response must contain the number and no unit.

[[record]]
compound = "CCCN(CCC)S(=O)(=O)c1ccc(C(=O)O)cc1"
measured = 1

[[record]]
compound = "CC(=O)c1cc(CC=C(C)C)c(O)c(CC=C(C)C)c1"
measured = 0.989

[[record]]
compound = "CSc1ncc(C#N)c2nc(-c3ccc(N(C)C)cc3)nn12"
measured = 0.991


Q: Endpoint output: normalized growth of CC(=O)c1ccc(O)c(CC=C(C)C)c1 . Value?
Ans: 0.983

Q: // query: OC[C@H]1O[C@@H](O[C@H]2[C@H](O)[C@@H](O)[C@@H](O)O[C@@H]2CO)[C@H](O)[C@@H](O)[C@@H]1O
Ans: 1

Q: How about OC[C@H]1O[C@@H](O[C@@H]2[C@@H](CO)O[C@](O)(CO)[C@H]2O)[C@H](O)[C@@H](O)[C@H]1O ?
Ans: 0.986

Q: Now give it for CSc1sc(C#N)c2c1C(O)CCC2 (stereo not given) too.
Ans: 0.973

Q: // same read-out, input: O=C(O)c1cccnc1
Ans: 0.96

Q: Further, for COc1ccccc1OCC(O)CO (stereo not given) ?
Ans: 1

Q: # iterate: Nc1ccc(S(=O)(=O)NC(=O)c2ccccc2)cc1
Ans: 1.01

Q: Same thing, different compound: CCOC(CN(c1ccc(F)cc1)S(=O)(=O)c1ccc(F)cc1F)OCC
Ans: 1

Q: Next compound up: O=c1[nH]cnc2ccsc12
Ans: 1.02

Q: Repeat for the following compound: CC1=CC(=O)c2ccccc2C1=O
Ans: 0.076

Q: And the next one, CCC(C)[C@H]1O[C@]2(C=C[C@@H]1C)C[C@@H]1C[C@@H](C/C=C(\C)[C@@H](OC3C[C@H](OC)C(O[C@H]4C[C@H](OC)[C@@H](O)[C@H](C)O4)[C@H](C)O3)[C@@H](C)/C=C/C=C3\CO[C@@H]4[C@H](O)C(C)=C[C@@H](C(=O)O1)[C@]34O)O2 (stereo not given in full) ?
Ans: 0.997

Q: Entry to check: CO[C@H]1CC(O[C@@H]2/C(C)=C/C[C@@H]3C[C@@H](C[C@]4(CC[C@H](C)[C@@H](C5CCCCC5)O4)O3)OC(=O)[C@@H]3C=C(C)/C(=N\O)[C@H]4OC/C(=C\C=C\[C@@H]2C)[C@]43O)O[C@@H](C)C1O (stereo not given in full)
Ans: 0.992

Q: What about this compound? O=C(O)c1ccc(S(=O)(=O)N(Cl)Cl)cc1
Ans: 1

* * *

# testProtocol: chemical genetic growth profiling, strain panel (AID 1159580);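 further: tested at 20 µM; growth read once vehicle control cultures reached saturation at 30 °C; 1 = growth at the plate median or of vehicle wells; lower values mean less growth of the strain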
# assaySetup: S. cerevisiae deletion strains, growth OD, locus YOR001W, strain rrp6
The campaign covered roughly 5,500 compounds. About 2,000 (36%) were called active. Not shown: some 18% with an inconclusive outcome. Cut-off read from the data, not from the text of the source: active = normalized growth mostly below about 0.91 (no sharp cut-off); inconclusive = no clear call, values can overlap the other calls; inactive = mostly above about 0.92. Some of the results follow.
Return exactly one item of active, inactive

Q: In this assay, the call recorded for COC(=O)c1c(C)c2c(c(C)c1O)OC(=O)c1c(C)c(Cl)c(O)c(Cl)c1O2 was what?
Ans: inactive

Q: How about this compound: CC1=CC(=O)c2ccccc2C1=O
Ans: inactive

Q: Would you mind doing Cc1cc(=O)oc2cc(O)cc(O)c12 as well?
Ans: inactive

* * *

Entries and their measured normalized growth follow.
# testProtocol: chemical genetic growth profiling, strain panel (AID 1159580);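 further: tested at 20 µM; growth read once vehicle control cultures reached saturation at 30 °C; 1 = growth at the plate median or of vehicle wells; lower values mean less growth of the strain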
# assaySetup: S. cerevisiae deletion strains, growth OD, locus YOR184W, strain ser1, stronger effect = lower value
The whole screen tested about 5,500 compounds, of which about 2,000 (36%) were called active. Roughly 18% stayed inconclusive and do not appear here. The list shows a part of the results.
# respond with the number and nothing more

Solved entries (count: 3):
[[record]]
compound = "CC(C)CC(NC(=O)OCC1c2ccccc2-c2ccccc21)C(=O)O (configuration not stated)"
measured = 1.05

[[record]]
compound = "CN(C)C(=O)Oc1cccc([N+](C)(C)C)c1"
measured = 0.99

[[record]]
compound = "O=P1(N(CCCl)CCCl)NCCCO1 (configuration not stated)"
measured = 1.08


Q: What does the record list as normalized growth for CCCc1c(OCCCCc2nn[nH]n2)ccc(C(C)=O)c1O ?
Ans: 0.992

Q: Same again, this time with O=C(NCO)c1cccnc1
Ans: 0.959

Q: Follow-up item: O=C(O)c1cccnc1
Ans: 1.03

Q: Can you check C=C(C)C1CCC(C)(O)C2CC3OC3(C)C2C1 (configuration not stated) next?
Ans: 1.03
